Listed below are compounds with IC50 for Tyrosine-protein kinase JAK3 (Homo sapiens, UniProt P52333), each taken from published literature.

Study these solved cases before continuing.
> print(dat)
                                   compound                       experimental.system      test.value
1  CN(c1ncnc2[nH]ccc12)C1CCC2(CC1)CCN(C(=O)c1cccc(C#N)c1)CC2  Tyrosine-protein kinase JAK3 (Homo sapiens, UniProt P52333)  100 to 1000 nM
2  Cc1ncc(-c2cc3nccn3c(-c3cnn(C4(CC#N)CN(S(=O)(=O)C(F)(F)F)C4)c3)n2)s1  Tyrosine-protein kinase JAK3 (Homo sapiens, UniProt P52333)       > 1000 nM
3  Cn1cc(-c2cc3nccn3c(-c3cnn(C4(CCO)CCC4)c3)n2)cn1  Tyrosine-protein kinase JAK3 (Homo sapiens, UniProt P52333)       > 1000 nM
4         CCC(=O)Nc1cccc(-c2cnc3ccccc3n2)c1  Tyrosine-protein kinase JAK3 (Homo sapiens, UniProt P52333)      > 50000 nM

Q: Give reported IC50 value for CCC(=O)c1cnc(Nc2cccc(C(=O)O)n2)cc1Nc1cccc(-c2ncn(C)n2)c1OC
A: ≥ 500 nM

Q: Give reported IC50 value for CSCCC(C1CC1)n1cc(-c2nc(-c3cnn(C)c3)cc3nccn23)cn1 (centres unmarked)
A: 100 to 1000 nM

Q: Give reported IC50 value for C[C@H](Nc1nc(Nc2ccc[nH]c2=O)ncc1O)c1ccc(F)cn1
A: < 100 nM

Q: Give reported IC50 value for CC(C)S(=O)(=O)N1CC(CC#N)(n2cc(-c3nc(-c4cnn(C)c4)cc4nccn34)cn2)C1
A: > 1000 nM

Q: Give reported IC50 value for C[C@@H](Nc1c(C(N)=O)cnn2cc(-c3ccn[nH]3)cc12)C(C)(C)F
A: 1.2 nM
